Provenance of the data: patent US10676431B2

# study target: human FPR2 (Homo sapiens (Human))
# method: FPR2 cyclic adenosine monophosphate (cAMP) assay
# Format: cell-based
# condition parameters: CHO cells overexpressing human FPR2; forskolin 5 μM, IBMX 200 μM; inhibition of cAMP production, HTRF; read-out: hFPR2 cAMP2 EC50
property label: EC50 (nM)

Past entries and their recorded results:
molecule | EC50 [nM]
CS(=O)(=O)Nc1ccccc1-c1ccc(N2CC[C@@H](NC(=O)Nc3ccc(Cl)cn3)C2=O)c(F)c1F | 16
CS(=O)(=O)Nc1ccccc1-c1ccc(N2CC[C@@H](NC(=O)Nc3cnc(Cl)cn3)C2=O)c(F)c1F | 10
CP(C)(=O)c1ccccc1-c1ccc(N2CC[C@@H](NC(=O)Nc3ccc(Cl)cc3F)C2=O)c2c1OC(F)(F)O2 | 3.1
COc1ccc(NC(=O)N[C@@H]2CCN(c3ccc(-c4ccccc4S(C)(=O)=O)c(F)c3F)C2=O)cc1 | 5.5
CS(=N)(=O)c1ccccc1-c1ccc(N2CC[C@@H](NC(=O)Nc3ccc(Cl)cc3F)C2=O)c(F)c1F (stereo partly shown) [Example 59] | 1.7

[I] O=C(Nc1ccc(Cl)cc1)N[C@@H]1CCN(c2ccc(-c3ccccc3CO)c(F)c2F)C1=O
[II] CCP(=O)(CC)c1ccccc1-c1ccc(N2CC[C@@H](NC(=O)Nc3ccc(Cl)cc3F)C2=O)c(F)c1F
Query: # returns the entry with the larger EC50; inputs I and II Please identify the chosen entry by its label.
Response: II

* * *

# study target: human FPR1 (Homo sapiens (Human), UniProt P21462)
# Sequence (P21462 whole entry): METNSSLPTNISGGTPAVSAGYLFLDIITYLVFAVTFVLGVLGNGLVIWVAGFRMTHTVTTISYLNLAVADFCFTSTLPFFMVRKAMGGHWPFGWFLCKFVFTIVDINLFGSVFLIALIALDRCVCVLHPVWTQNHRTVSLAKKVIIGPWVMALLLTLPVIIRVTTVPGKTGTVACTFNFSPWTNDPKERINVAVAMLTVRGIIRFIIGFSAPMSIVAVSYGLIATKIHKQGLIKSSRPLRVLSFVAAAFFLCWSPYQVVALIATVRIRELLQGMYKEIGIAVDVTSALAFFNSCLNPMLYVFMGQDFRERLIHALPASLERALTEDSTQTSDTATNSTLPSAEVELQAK
# method: FPR1 cyclic adenosine monophosphate (cAMP) assay
# condition parameters: CHO cells overexpressing human FPR1; forskolin 10 μM, IBMX 200 μM; inhibition of cAMP production, HTRF; read-out: hFPR1 cAMP EC50
property label: EC50 (µM)

[A] CC1C[C@@H](NC(=O)Nc2ccc(C(F)(F)F)cc2F)C(=O)N1c1ccc(-c2ccccc2P(C)(C)=O)c(F)c1F (stereo partly shown) [Example 116]
[B] CP(C)(=O)c1ccccc1-c1ccc(N2CC[C@@H](NC(=O)Nc3ccc(C(F)(F)F)cc3F)C2=O)c(F)c1OC(F)(F)F
Query: # returns the entry with the larger EC50; inputs A and B Please identify the chosen entry by its label.
Response: A

[1] CS(=N)(=O)c1ccccc1-c1ccc(N2CC[C@@H](NC(=O)Nc3ccc(Cl)cc3F)C2=O)c(F)c1F (stereo partly shown) [Example 59]
[2] CS(=O)(=O)Nc1ccccc1-c1ccc(N2CC[C@@H](NC(=O)Nc3ccc(Cl)cc3F)C2=O)c(F)c1
Query: # returns the entry with the larger EC50; inputs 1 and 2 Please identify the chosen entry by its label.
Response: 2

[a] CP(C)(=O)c1ncncc1-c1ccc(N2CC[C@@H](NC(=O)Nc3ccc(Cl)cc3F)C2=O)c(F)c1F
[b] CS(=O)(=O)c1ccccc1-c1ccc(N2CC[C@@H](NC(=O)Nc3ccc(C(F)(F)F)cc3F)C2=O)c(F)c1F
Query: # compare EC50 for a vs b ; return the one with the smaller value Please identify the chosen entry by its label.
Response: b
(b: 0.19 µM, a: 0.28 µM)

* * *

# study target: human FPR2 (Homo sapiens (Human))
# method: FPR2 cyclic adenosine monophosphate (cAMP) assay
# condition parameters: CHO cells overexpressing human FPR2; forskolin 5 μM, IBMX 200 μM; inhibition of cAMP production, HTRF; read-out: hFPR2 cAMP2 EC50
pEC50: −log10 of the molar value.
property label: pEC50

Past entries and their recorded results:
sample smiles | study target | pEC50
O=C(Nc1ccc(Cl)cc1F)N[C@@H]1C[C@@H](CO)N(c2ccc(-c3ccccc3F)c(F)c2F)C1=O | human FPR2 (Homo sapiens (Human)) | 8.60
CC(C)c1cc(-c2ccccc2CO)ccc1N1CC[C@@H](NC(=O)Nc2ccc(Cl)cc2F)C1=O | human FPR2 (Homo sapiens (Human)) | 8.46
CP(C)(=O)c1ccccc1-c1ccc(N2CC[C@@H](NC(=O)Nc3ccc(C(F)(F)F)cc3F)C2=O)c(Cl)c1Cl | human FPR2 (Homo sapiens (Human)) | 8.85
CC(C)c1cc(-c2ccccc2P(C)(C)=O)ccc1N1CC[C@@H](NC(=O)Nc2ccc(Cl)cc2F)C1=O | human FPR2 (Homo sapiens (Human)) | 8.52
CC1(C)CN(c2ccc(-c3ccccc3P(C)(C)=O)c(F)c2F)C(=O)[C@@H]1NC(=O)Nc1cnc(Cl)cn1 | human FPR2 (Homo sapiens (Human)) | 8.24
CS(=O)(=O)c1ccccc1-c1ccc(N2CC[C@@H](NC(=O)Nc3ccc(Cl)cc3F)C2=O)c(F)c1F | human FPR2 (Homo sapiens (Human)) | 8.68

[P] COc1ncccc1-c1ccc(N2CC[C@@H](NC(=O)Nc3ccc(Cl)cc3F)C2=O)c(F)c1F
[Q] CS(=O)(=O)c1ccccc1-c1ccc(N2CC[C@@H](NC(=O)Nc3ccc(Cl)cc3)C2=O)c(F)c1F
[R] CP(C)(=O)c1c(F)cccc1-c1ccc(N2CC[C@@H](NC(=O)Nc3ccc(C(F)(F)F)cc3F)C2=O)c(F)c1F
[S] CP(C)(=O)c1ccccc1-c1ccc(N2CC[C@@H](NC(=O)Nc3ccc(C(F)(F)F)cn3)C2=O)c(F)c1F
[T] CS(=O)(=O)Nc1ccccc1-c1ccc(N2CC[C@@H](NC(=O)Nc3ccc(C(F)(F)F)cc3)C2=O)c(F)c1F
Query: # sort list by recorded pEC50, greatest to least Reply with the item labels sorted in the order that was asked for.
Response: R, T, Q, S, P
(R: 9.21, T: 9.00, Q: 8.66, S: 8.06, P: 7.77)

* * *

# study target: human FPR1 (Homo sapiens (Human))
# method: FPR1 cyclic adenosine monophosphate (cAMP) assay
# condition parameters: CHO cells overexpressing human FPR1; forskolin 10 μM, IBMX 200 μM; inhibition of cAMP production, HTRF; read-out: hFPR1 cAMP EC50
property label: EC50 (nM)

Past entries and their recorded results:
sample smiles | EC50 / nM
CS(=O)(=O)c1ccccc1-c1ccc(N2CC[C@@H](NC(=O)Nc3ccc(Cl)cc3F)C2=O)c(F)c1F | 140
CS(=O)(=O)c1ccccc1-c1ccc(N2C(=O)[C@H](NC(=O)Nc3ccc(Cl)cc3F)C[C@H]2CO)c(F)c1F | 220
O=C(Nc1ccc(Cl)cc1)N[C@@H]1CCN(c2ccc(-c3ccccc3F)c(F)c2F)C1=O | 120
CP(C)(=O)c1ccccc1-c1ccc(N2CC[C@@H](NC(=O)Nc3ccc(C(F)(F)F)cc3F)C2=O)c(F)c1C1CC1 | 25
CS(=O)(=O)Nc1ccccc1-c1ccc(N2CC[C@@H](NC(=O)Nc3ccc(C(F)(F)F)cc3F)C2=O)c(C2CC2)c1 | 120

[a] CP(C)(=O)c1ccccc1-c1ccc(N2CC[C@@H](NC(=O)Nc3ccc(Cl)cc3F)C2=O)c(Cl)c1Cl
[b] CS(=O)(=O)Nc1ccccc1-c1ccc(N2CC[C@@H](NC(=O)Nc3ccc(Cl)cn3)C2=O)c(F)c1F
Query: # compare EC50 for a vs b ; return the one with the smaller value Please identify the chosen entry by its label.
Response: a

* * *

# study target: human FPR2 (Homo sapiens (Human), UniProt P25090)
# Sequence (P25090 whole entry): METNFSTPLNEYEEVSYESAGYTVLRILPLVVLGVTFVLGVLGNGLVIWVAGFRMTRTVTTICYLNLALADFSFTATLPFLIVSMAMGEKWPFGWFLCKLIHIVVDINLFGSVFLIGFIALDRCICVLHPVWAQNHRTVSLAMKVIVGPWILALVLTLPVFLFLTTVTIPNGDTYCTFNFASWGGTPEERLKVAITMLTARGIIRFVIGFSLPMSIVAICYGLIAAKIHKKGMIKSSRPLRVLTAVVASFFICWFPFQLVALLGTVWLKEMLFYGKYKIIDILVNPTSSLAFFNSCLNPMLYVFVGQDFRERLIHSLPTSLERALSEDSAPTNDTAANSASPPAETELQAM
# method: FPR2 cyclic adenosine monophosphate (cAMP) assay
# condition parameters: CHO cells overexpressing human FPR2; forskolin 5 μM, IBMX 200 μM; inhibition of cAMP production, HTRF; read-out: hFPR2 cAMP2 EC50
property label: EC50 (nM)

Past entries and their recorded results:
compound | EC50 [nM]
CC(N)c1cccc(-c2ccc(N3CC[C@@H](NC(=O)Nc4ccc(Cl)cc4)C3=O)c(F)c2F)c1 (stereo partly shown) [Example 22] | 33
CS(=O)(=O)Nc1ccccc1-c1ccc(N2CC[C@@H](NC(=O)Nc3c(F)cc(Cl)cc3F)C2=O)c(F)c1F | 0.93
CS(=O)(=O)c1ccccc1-c1ccc(N2CC[C@@H](NC(=O)Nc3ccc(Cl)cn3)C2=O)c(F)c1F | 22
CS(=O)(=O)Nc1ccccc1-c1ccc(N2CC[C@@H](NC(=O)Nc3ccc(Cl)cc3F)C2=O)c(F)c1F | 0.68
O=C(Nc1ccc(Cl)cc1F)N[C@@H]1CCN(c2ccc(-c3ccccc3F)c(F)c2F)C1=O | 31
CS(=N)(=O)c1ccccc1-c1ccc(N2CC[C@@H](NC(=O)Nc3ccc(Cl)cc3F)C2=O)c(F)c1F (stereo partly shown) [Example 58] | 6.3
CS(=O)(=O)Nc1ncccc1-c1ccc(N2CC[C@@H](NC(=O)Nc3ccc(Cl)cc3F)C2=O)c(F)c1F | 8.2
CS(=O)(=O)c1ccccc1-c1ccc(N2CC[C@@H](NC(=O)Nc3ccc(C(F)(F)F)cc3F)C2=O)c(F)c1F | 7

[P] CC1(C)CN(c2ccc(-c3cccnc3P(C)(C)=O)c(F)c2F)C(=O)[C@@H]1NC(=O)Nc1ccc(C(F)(F)F)cc1F
[Q] N#Cc1ccccc1-c1ccc(N2CC[C@@H](NC(=O)Nc3ccc(Cl)cc3F)C2=O)c(F)c1F
[R] CP(C)(=O)c1ncncc1-c1ccc(N2CC[C@@H](NC(=O)Nc3ccc(Cl)cc3F)C2=O)c(F)c1F
[S] CP(C)(=O)c1ncncc1-c1ccc(N2CC[C@@H](NC(=O)Nc3ccc(C(F)(F)F)cc3F)C2=O)c(F)c1F
Query: Please produce an ascending ranking of these compounds based on EC50. Reply with the item labels sorted in the order that was asked for.
Response: P, Q, R, S
(P: 1.1 nM, Q: 2.1 nM, R: 6 nM, S: 12 nM)
